molecular target: BTK-WT (Homo sapiens, UniProt Q06187); construct: purified from insect cells as a full-length construct containing an N-terminal 6X-His tag; His6 (N); made in house; host or cells: insect cells (baculovirus Sf21 in Method B); assay: Btk in vitro inhibitory activity (one of Method A TR-FRET, Method B electrophoretic mobility shift, Method C radiometric filter binding); format: biochemical; conditions: E compounds, Table 17; read-out: IC50 BTK-WT
Sequence (Q06187 whole entry): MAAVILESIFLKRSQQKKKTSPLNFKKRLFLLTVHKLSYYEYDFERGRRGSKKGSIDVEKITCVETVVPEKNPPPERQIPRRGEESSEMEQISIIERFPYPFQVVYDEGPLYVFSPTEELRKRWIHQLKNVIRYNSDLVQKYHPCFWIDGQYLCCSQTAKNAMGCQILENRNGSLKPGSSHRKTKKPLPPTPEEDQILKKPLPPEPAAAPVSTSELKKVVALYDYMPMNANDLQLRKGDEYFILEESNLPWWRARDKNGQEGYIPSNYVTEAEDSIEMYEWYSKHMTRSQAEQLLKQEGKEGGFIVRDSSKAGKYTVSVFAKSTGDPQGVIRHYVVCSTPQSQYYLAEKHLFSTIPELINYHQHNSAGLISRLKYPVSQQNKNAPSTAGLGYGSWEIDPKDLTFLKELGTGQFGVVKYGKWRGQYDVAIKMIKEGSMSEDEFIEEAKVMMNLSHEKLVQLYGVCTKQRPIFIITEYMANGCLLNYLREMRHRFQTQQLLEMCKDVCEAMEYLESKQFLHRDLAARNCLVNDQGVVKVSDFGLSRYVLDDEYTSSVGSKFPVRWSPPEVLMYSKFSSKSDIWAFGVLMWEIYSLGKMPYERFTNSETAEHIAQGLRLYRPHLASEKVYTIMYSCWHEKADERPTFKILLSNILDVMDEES
Endpoint: IC50

For every item in the list below, what is its measured IC50?
1. C=CC(=O)NC[C@H]1CCCCN1c1nnc(C(N)=O)c(Nc2ccc(C(C)C)cc2)n1 [Example E-88]
2. C=CC(=O)N1CCC[C@@H](Nc2nnc(C(N)=O)c(Nc3cnn(C)c3)n2)C1 [Example E-73]
3. C=CC(=O)N1CCC[C@@H](Nc2nnc(C(N)=O)c(Nc3ccc(CN(C(=O)OCc4ccccc4)[C@@H](C)C(C)(C)C)cc3)n2)C1 [Example E-56]
4. C=CC(=O)NC[C@@H]1CCCN1c1nnc(C(N)=O)c(Nc2ccc(C(C)C)cc2)n1 [Example E-91]

Ans:
≤ 10 nM
≤ 10 nM
≤ 10 nM
10 to 100 nM

----------
Provide the reported IC50 of each item.
target: EGFR (Homo sapiens, UniProt P00533); assay: Inhibition of a panel of kinases, in vitro HotSpot kinase assay: EGFR; format: biochemical; settings: D-compounds panel data; 1 μM ATP
Sequence (P00533 25-1210): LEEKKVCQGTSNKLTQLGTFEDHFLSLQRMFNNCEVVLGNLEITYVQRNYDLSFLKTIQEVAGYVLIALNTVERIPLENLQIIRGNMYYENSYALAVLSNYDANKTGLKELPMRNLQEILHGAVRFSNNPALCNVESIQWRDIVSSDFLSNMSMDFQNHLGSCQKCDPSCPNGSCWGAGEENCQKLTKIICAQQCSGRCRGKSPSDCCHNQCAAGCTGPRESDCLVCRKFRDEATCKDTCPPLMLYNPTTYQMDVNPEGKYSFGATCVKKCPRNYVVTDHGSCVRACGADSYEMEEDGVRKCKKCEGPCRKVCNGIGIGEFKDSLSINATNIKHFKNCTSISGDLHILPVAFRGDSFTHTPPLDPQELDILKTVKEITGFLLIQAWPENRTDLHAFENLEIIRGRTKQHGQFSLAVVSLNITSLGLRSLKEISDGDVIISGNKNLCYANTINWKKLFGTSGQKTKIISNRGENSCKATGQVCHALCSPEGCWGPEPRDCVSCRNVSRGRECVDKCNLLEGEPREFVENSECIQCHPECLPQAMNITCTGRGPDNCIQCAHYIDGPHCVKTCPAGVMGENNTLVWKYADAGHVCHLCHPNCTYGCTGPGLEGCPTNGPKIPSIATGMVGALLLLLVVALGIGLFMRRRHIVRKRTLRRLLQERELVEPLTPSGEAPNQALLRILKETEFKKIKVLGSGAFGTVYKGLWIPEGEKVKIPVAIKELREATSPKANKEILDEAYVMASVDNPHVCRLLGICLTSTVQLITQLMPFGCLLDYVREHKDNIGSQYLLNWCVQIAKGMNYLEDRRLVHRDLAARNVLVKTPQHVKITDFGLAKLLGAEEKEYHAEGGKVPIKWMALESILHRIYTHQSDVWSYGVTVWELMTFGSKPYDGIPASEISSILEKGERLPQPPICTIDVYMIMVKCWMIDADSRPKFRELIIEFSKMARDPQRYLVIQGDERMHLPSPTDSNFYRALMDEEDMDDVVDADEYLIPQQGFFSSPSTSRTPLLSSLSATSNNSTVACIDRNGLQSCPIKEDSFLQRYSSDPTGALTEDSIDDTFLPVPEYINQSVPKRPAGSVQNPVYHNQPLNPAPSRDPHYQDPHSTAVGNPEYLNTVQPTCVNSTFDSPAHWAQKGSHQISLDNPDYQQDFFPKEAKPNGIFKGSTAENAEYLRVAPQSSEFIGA

>>> df
                                   compound    value_measured
0  Cc1ccc(-c2cnc([C@@H]3CCCN(c4cnc(C(N)=O)c(Nc5cc(C)ns5)n4)[C@@H]3C)[nH]2)cc1    100 to 1000 nM
1  C[C@@H]1[C@H](NC(=O)c2ccc(C(C)(C)C)cc2)CCCN1c1cnc(C(N)=O)c(Nc2cnn(C)c2)n1  1000 to 10000 nM

Each compound below has a reported value. Please supply its IC50.
1. Cc1cc2cc(C(=O)N[C@@H]3CCCN(c4cnc(C(N)=O)c(Nc5cnn(C)c5)n4)[C@@H]3C)ccc2o1
2. C[C@@H]1[C@H](NC(=O)c2ccc(C3CC3)cc2)CCCN1c1cnc(C(N)=O)c(Nc2cnn(CC3CCOCC3)c2)n1
3. C[C@@H]1[C@H](NC(=O)c2ccc(C3CC3)cc2)CCCN1c1cnc(C(N)=O)c(Nc2ccc(OC3CCN4CCCC4C3)cc2)n1 (stereo partly shown)
4. C[C@@H]1[C@H](NC(=O)c2ccc(C3CC3)cc2)CCCN1c1cnc(C(N)=O)c(Nc2cc(C3CCN(C)CC3)ns2)n1
5. C[C@@H]1[C@H](NC(=O)c2ccc(C3CC3)cc2F)CCCN1c1cnc(C(N)=O)c(Nc2ccc(N3CCNCC3)c(F)c2)n1
6. COCCn1cc(Nc2nc(N3CCC[C@@H](NC(=O)c4ccc(C5CC5)cc4)[C@H]3C)cnc2C(N)=O)cn1
7. CCN(CC)c1ccc(C(=O)N[C@@H]2CCCN(c3cnc(C(N)=O)c(Nc4cnn(C)c4)n3)[C@@H]2C)cc1
8. C[C@@H]1[C@H](NC(=O)c2ccc(C3CC3)cc2F)CCCN1c1cnc(C(N)=O)c(Nc2ccc(N3CCN(C)CC3)nc2)n1

Ans:
1. 1000 to 10000 nM
2. 1000 to 10000 nM
3. 1000 to 10000 nM
4. 100 to 1000 nM
5. 100 to 1000 nM
6. 1000 to 10000 nM
7. 1000 to 10000 nM
8. 1000 to 10000 nM

For each of the compounds below, state IC50.
1. Cc1nc2cc(C(=O)N[C@@H]3CCCN(c4cnc(C(N)=O)c(Nc5cnn(C)c5)n4)[C@@H]3C)ccc2s1
2. C[C@@H]1[C@H](NC(=O)c2ccc(C3CC3)cc2F)CCCN1c1cnc(C(N)=O)c(Nc2ccc(C3(C)CCN(C4CC4)CC3)cc2)n1
3. Cn1cc(Nc2nc(N3CCC[C@@H](n4ccc5cc(C6CC6)ccc5c4=O)C3)cnc2C(N)=O)cn1

Ans:
1. 1000 to 10000 nM
2. 100 to 1000 nM
3. > 10000 nM

----------
molecular target: LCK (Homo sapiens, UniProt P06239); assay: Inhibition of a panel of kinases, in vitro HotSpot kinase assay: LCK; assay type: biochemical; conditions: D-compounds panel data; 1 μM ATP; read-out: IC50 LCK
Sequence (P06239 whole entry): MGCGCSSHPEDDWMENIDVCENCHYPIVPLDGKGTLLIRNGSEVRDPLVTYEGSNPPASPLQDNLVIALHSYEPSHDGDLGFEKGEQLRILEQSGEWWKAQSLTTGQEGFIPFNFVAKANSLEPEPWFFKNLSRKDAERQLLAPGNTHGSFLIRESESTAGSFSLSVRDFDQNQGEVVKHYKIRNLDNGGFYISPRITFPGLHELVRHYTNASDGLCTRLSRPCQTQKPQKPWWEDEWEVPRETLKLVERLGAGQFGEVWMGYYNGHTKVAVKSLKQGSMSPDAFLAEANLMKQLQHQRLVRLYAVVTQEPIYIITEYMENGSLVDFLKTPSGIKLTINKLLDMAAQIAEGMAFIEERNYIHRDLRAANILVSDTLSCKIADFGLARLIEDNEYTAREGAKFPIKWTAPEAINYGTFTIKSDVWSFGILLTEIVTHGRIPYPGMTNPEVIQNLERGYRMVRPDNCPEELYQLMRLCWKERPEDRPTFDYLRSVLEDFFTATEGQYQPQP
pIC50: −log10 of the molar value.
Endpoint: pIC50

In the examples that follow, each entry is paired with its recorded pIC50.
>>> df
                                   compound  value_measured
0  C[C@@H]1[C@H](NC(=O)c2ccc3[nH]cnc3c2)CCCN1c1cnc(C(N)=O)c(Nc2cnn(C)c2)n1    7.00 to 8.00
1  C[C@@H]1[C@H](n2ccc3cc(C4CC4)ccc3c2=O)CCCN1c1cnc(C(N)=O)c(Nc2ccc(N3CCN(C)CC3)cc2)n1    7.00 to 8.00

List pIC50 for every entry below, keeping the order given.
1. C[C@@H]1CC[C@H](NC(=O)c2ccc(C3CC3)cc2)CN1c1cnc(C(N)=O)c(Nc2cnn(C)c2)n1
2. C[C@@H]1[C@H](NC(=O)c2ccc3c(c2)C(C)(C)CO3)CCCN1c1cnc(C(N)=O)c(Nc2cnn(C)c2)n1
3. C[C@@H]1[C@H](NC(=O)C23CC(C2)C3)CCCN1c1cnc(C(N)=O)c(Nc2cnn(C)c2)n1

Ans:
1. 5.00 to 6.00
2. 7.00 to 8.00
3. 6.00 to 7.00

----------
biological target: UniProt:P00533; experiment: Inhibition of a panel of kinases, in vitro HotSpot kinase assay: EGFR; type: biochemical; settings: D-compounds panel data; 1 μM ATP
Give measured IC50 for each item. Keep answers brief.

A selection of reference data follows.
>>> df
                                   molecule   tested_system    value_measured
0  C[C@@H]1[C@H](NC(=O)N(C)C)CCCN1c1cnc(C(N)=O)c(Nc2cn[nH]c2)n1  UniProt:P00533  1000 to 10000 nM
1  C[C@H]1CC[C@@H](NC(=O)c2ccc(C3CC3)cc2)CN1c1cnc(C(N)=O)c(Nc2cnn(C)c2)n1  UniProt:P00533  1000 to 10000 nM
2  C[C@@H]1[C@H](NC(=O)c2coc(C3CC3)n2)CCCN1c1cnc(C(N)=O)c(Nc2cnn(C)c2)n1  UniProt:P00533    100 to 1000 nM
3  Cc1cc(Nc2nc(N3CCCC(c4ncc(-c5ccccc5)[nH]4)C3)cnc2C(N)=O)sn1 (stereo not shown)  UniProt:P00533    100 to 1000 nM
4  C[C@@H]1[C@H](NC(=O)c2ccc(C3CC3)cc2)CCCN1c1cnc(C(N)=O)c(NCC2=CCN(C)CC2)n1  UniProt:P00533        > 10000 nM
5  C[C@@H]1[C@H](NC(=O)c2ccc(N(C)C)cc2)CCCN1c1cnc(C(N)=O)c(Nc2ccc(C3(C)CCN(C4CCCC4)CC3)cc2)n1  UniProt:P00533    100 to 1000 nM

Attention now shifts to the item below.
Q: Give IC50 only, for Cc1ccc(C(=O)N[C@@H]2CCCN(c3cnc(C(N)=O)c(Nc4cnn(C)c4)n3)[C@@H]2C)cc1 , using UniProt:P00533 data.
Ans: 1000 to 10000 nM

----------
Molecular target: JAK3 (Homo sapiens)
Sequence (P52333 1-1124): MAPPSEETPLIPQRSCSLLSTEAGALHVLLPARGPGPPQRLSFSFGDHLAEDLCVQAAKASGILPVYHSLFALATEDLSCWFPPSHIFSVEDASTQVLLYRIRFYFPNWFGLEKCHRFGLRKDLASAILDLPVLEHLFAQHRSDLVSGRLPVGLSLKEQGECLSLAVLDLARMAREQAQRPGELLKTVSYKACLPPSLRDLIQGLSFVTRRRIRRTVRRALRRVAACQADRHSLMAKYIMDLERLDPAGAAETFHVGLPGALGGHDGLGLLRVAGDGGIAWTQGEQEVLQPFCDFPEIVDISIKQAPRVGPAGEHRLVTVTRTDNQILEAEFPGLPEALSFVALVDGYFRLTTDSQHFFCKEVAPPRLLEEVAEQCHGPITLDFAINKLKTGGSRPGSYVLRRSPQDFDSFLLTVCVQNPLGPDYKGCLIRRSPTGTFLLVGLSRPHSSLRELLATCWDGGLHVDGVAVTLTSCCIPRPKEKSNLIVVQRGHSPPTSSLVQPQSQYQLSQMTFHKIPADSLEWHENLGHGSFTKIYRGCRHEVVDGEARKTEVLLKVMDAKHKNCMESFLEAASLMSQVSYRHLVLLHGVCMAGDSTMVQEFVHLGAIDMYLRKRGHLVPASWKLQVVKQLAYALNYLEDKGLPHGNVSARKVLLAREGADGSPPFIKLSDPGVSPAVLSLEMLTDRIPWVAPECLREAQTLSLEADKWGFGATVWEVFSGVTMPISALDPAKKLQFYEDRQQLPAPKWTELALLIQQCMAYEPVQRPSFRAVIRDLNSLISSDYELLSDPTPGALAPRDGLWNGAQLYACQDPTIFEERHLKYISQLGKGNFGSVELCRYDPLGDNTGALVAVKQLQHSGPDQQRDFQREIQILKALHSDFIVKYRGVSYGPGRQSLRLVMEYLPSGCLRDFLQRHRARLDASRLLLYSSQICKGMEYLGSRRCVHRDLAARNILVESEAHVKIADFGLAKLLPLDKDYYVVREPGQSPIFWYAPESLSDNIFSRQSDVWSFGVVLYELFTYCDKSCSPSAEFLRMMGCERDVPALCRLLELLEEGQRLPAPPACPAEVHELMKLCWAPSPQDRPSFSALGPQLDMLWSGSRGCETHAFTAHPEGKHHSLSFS
Test: Inhibition of a panel of kinases, in vitro HotSpot kinase assay: JAK3
Assay type: biochemical
Settings: D-compounds panel data; 1 μM ATP; read-out: IC50 JAK3
Please respond with reported IC50 for every item in the list.

The examples below pair each entry with its known result.
                                   compound    value_measured
0  C[C@@H]1[C@H](NC(=O)c2ccc3cnn(C)c3c2)CCCN1c1cnc(C(N)=O)c(Nc2cnn(C)c2)n1  1000 to 10000 nM
1  Cn1cc(Nc2nc(N3CCC[C@@H](NC(=O)c4ccc(C(C)(C)O)cc4)C3)nnc2C(N)=O)cn1    100 to 1000 nM
2  C[C@@H]1[C@H](NC(=O)c2ccc(C3CC3)cc2F)CCCN1c1cnc(C(N)=O)c(Nc2ccc(CN3CCN(C)CC3)cn2)n1        > 10000 nM
3  C[C@@H]1[C@H](NC(=O)c2ccc(C3CC3)cc2)CCCN1c1cnc(C(N)=O)c(Nc2ccc3nccn3c2)n1  1000 to 10000 nM

I have 3 compounds here; please give me IC50 for each one.
1. Cc1nc2cc(C(=O)N[C@@H]3CCCN(c4cnc(C(N)=O)c(Nc5cnn(C)c5)n4)[C@@H]3C)ccc2o1
2. C[C@@H]1[C@H](NC(=O)c2ccc(C(C)(C)O)cc2)CCCN1c1cnc(C(N)=O)c(Nc2cnn(C)c2)n1
3. C[C@@H]1[C@H](NC(=O)c2ccc(C3CC3)cc2F)CCCN1c1cnc(C(N)=O)c(Nc2ccc(N3CCN(C)CC3)cc2)c1

Ans:
1. 100 to 1000 nM
2. 1000 to 10000 nM
3. > 10000 nM
